- PROCEDURE_DETAILS: Selectivity index, ratio of cytotoxicity against human BxPC3 cells to IC50 for chloroquine-sensitive Plasmodium falciparum 3D7
- Format: toxicity, cell-based, BXPC-3
- MEASUREMENT_CONDITIONS: read-out: Selectivity Index
QUANTITY_KIND: selectivity ratio

Give reported selectivity ratio value for O=C1c2cccc(O)c2C(=O)c2c1ccc(C1(O)c3cccc(O)c3C(=O)c3c(O)cccc31)c2O [ALBOPUNCTATONE]
> 9.1

====

- PROCEDURE_DETAILS: Selectivity index, ratio of cytotoxicity against human PANC1 cells to IC50 for chloroquine-sensitive Plasmodium falciparum 3D7
- Assay type: toxicity, cell-based, PANC-1
- MEASUREMENT_CONDITIONS: read-out: Selectivity Index
QUANTITY_KIND: selectivity ratio

Give reported selectivity ratio value for O=C1c2cccc(O)c2C(=O)c2c1ccc(C1(O)c3cccc(O)c3C(=O)c3c(O)cccc31)c2O
> 9.1

====

- PROCEDURE_DETAILS: Growth inhibition of human MCF10A cells at 20 uM incubated for 72 hrs by resazurin dye reduction assay
- Format: cell-based, MCF-10A
- MEASUREMENT_CONDITIONS: read-out: GI
QUANTITY_KIND: inhibition at 72 h, 20 µM (%)
Give the quantity in %, number only.

Give reported inhibition at 72 h, 20 µM value for COc1ccc(C[C@H](N)C(=O)N[C@H]2[C@@H](O)[C@H](n3cnc4c(N(C)C)ncnc43)O[C@@H]2CO)cc1
100

====

- PROCEDURE_DETAILS: Growth inhibition of human HEK293 cells at 20 uM incubated for 72 hrs by resazurin dye reduction assay
- Format: cell-based
- MEASUREMENT_CONDITIONS: read-out: GI
QUANTITY_KIND: inhibition at 72 h, 20 µM

Give reported inhibition at 72 h, 20 µM value for COc1ccc(C[C@H](N)C(=O)N[C@H]2[C@@H](O)[C@H](n3cnc4c(N(C)C)ncnc43)O[C@@H]2CO)cc1
100%

====

- PROCEDURE_DETAILS: Selectivity index, ratio of cytotoxicity against human MCF10A cells to IC50 for chloroquine-sensitive Plasmodium falciparum 3D7
- Type: toxicity, cell-based, MCF-10A
- MEASUREMENT_CONDITIONS: read-out: Selectivity Index
QUANTITY_KIND: selectivity ratio

Give reported selectivity ratio value for O=C1c2cccc(O)c2C(=O)c2c1ccc(C1(O)c3cccc(O)c3C(=O)c3c(O)cccc31)c2O
> 9.1
